- assay.target: rP2 × 2R (Rattus norvegicus, UniProt P49653)
- Sequence (P49653 1-472): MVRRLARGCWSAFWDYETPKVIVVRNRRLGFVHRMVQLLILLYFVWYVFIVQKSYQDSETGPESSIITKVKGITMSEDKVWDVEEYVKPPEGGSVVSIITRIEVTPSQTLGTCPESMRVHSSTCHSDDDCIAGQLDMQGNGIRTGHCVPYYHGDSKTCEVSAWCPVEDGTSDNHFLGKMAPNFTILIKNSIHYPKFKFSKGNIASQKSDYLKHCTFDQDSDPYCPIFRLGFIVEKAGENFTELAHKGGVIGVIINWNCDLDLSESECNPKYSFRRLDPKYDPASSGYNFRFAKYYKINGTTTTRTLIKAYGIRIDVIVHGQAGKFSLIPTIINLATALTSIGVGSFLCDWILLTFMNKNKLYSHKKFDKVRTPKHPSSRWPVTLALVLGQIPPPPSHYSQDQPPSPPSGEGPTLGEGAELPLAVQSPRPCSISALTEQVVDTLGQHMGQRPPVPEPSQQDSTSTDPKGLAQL
- assay.name: cell-based
- protocol.conditions: ATP EC50, NEM treatment + Zn(II) group; control before treatment (first ATP curve)
readout.type: EC50
Write down the value, and be sure its unit follows.

Looking up Nc1ncnc2c1ncn2[C@@H]1O[C@H](COP(=O)(O)OP(=O)(O)OP(=O)(O)O)[C@@H](O)[C@H]1O [ATP, adenosine triphosphate] , I see its EC50 listed as 39.9 µM
